Test system: MS2 coat protein
Assay: apparent KD of MS2 coat protein; designed switch direction (-1 OFF switch, 1 ON switch): -1; higher = weaker reporter binding
Conditions: input ligand: none
Parameter apparent KD of MS2 coat protein: see the listing below.
A number alone suffices; assume nM.

Answered cases to consult:
sequenceChain	targetDesc	apparent KD of MS2 coat protein, nM
UGUUGUUCAGGAUAUGAUGUAUAAUACAUGAGGAUCACCCAUGUAGAUCCUGAAUUAACAUCAGAAGGGAAUAUUU [JL-ex5-4.59 Brourd mod] (Eterna round: R97, puzzle: Exclusion 5)	MS2 coat protein	17.2
CGUGUCUGAUAGGAUAUGACUGUUCAUAGAUGGUUAGAAGGAUCGACAUGAGGAUCACCCAUGUAGGGCUAGCG [Eternabot (L1) Solution 65] (Eterna round: R97, puzzle: Exclusion 6)	MS2 coat protein	219
ACUCAGUGAGGAUAUCGCCAGAGAACCGUAACGGUCUCUGAUGAGAAGGCACAUGAGGAUCACCCAUGUAAGCA [EX4 C.3] (Eterna round: R97, puzzle: Exclusion 4)	MS2 coat protein	174
AUAAGUAUGAAGGAUAUGCGCGAGCCAGCUUGGGCAGAAGGUUAAACAUGAGGAUCACCCAUGUGGAAAUCCGA [Eternabot (Original) Solution 34] (Eterna round: R97, puzzle: Exclusion 6)	MS2 coat protein	21.7

--- query ---
Problem: Dear colleague, please send me the reported apparent KD of MS2 coat protein for CUCAUGCCUGAGGAUAUGCUGUACAAAAGUACUGCAGAAGGCGGGACAUGAGGAUCACCCAUGUGGCGAAAGCC [Omei Ex G8] (Eterna round: R97, puzzle: Exclusion 6) when you can.
Solution: 519
